All figures here come from patent US20220185900A1.

# ASSAY TARGET: T1, hRET.mFc (human)
# T1 construct: also called dimeric human RET
# ASSAY SUMMARY: SPR Biacore T200, mAb capture, 25 C
Each item that follows carries a reported Kd.
# output: bare number, implied unit nM

Data request: # query: Kd of entry H4H8046P (antibody, human IgG4, V domains shown, human IgG4 Fc (H4H prefix)) VH: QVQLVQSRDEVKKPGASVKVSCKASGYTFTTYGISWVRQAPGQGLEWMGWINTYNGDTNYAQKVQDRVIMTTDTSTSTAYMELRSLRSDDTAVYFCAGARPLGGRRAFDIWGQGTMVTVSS VL: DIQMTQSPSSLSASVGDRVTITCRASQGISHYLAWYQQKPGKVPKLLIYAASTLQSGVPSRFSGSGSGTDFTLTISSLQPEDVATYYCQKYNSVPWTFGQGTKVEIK
Data returned: 0.645
